Ref: the supplement of paper PMC11061612

Test system: NCI-H446 (Small Cell Lung Carcinoma)
Assay: Bliss excess, mean over the matrix (fraction); higher = more synergy

- compound: "CC1(C)CCC(CN2CCN(c3ccc(C(=O)NS(=O)(=O)c4ccc(NCC5CCOCC5)c([N+](=O)[O-])c4)c(Oc4cnc5[nH]ccc5c4)c3)CC2)=C(c2ccc(Cl)cc2)C1 [Venetoclax] + C[C@@H]1COCCN1C2=NC(=NC(=C2)C3(CC3)[S@](=N)(=O)C)C4=C5C=CNC5=NC=C4 [AZD6738] (first compound max 1 µM, 7x7, partner max 10 µM)"
  Bliss excess: -0.0536
- compound: "COc1cccc(OCCCN)c1-c1cc(Nc2cnc(C#N)cn2)n[nH]1 [Prexasertib] + Cc1cc2ncnn2cc1Nc1ncc2c(n1)n(C1CCOCC1)c(=O)n2C [AZD7648] (first compound max 1 µM, 7x7, partner max 10 µM)"
  Bliss excess: -0.008

---

Test system: SHP-77 (Small Cell Lung Carcinoma)
Experiment: Bliss excess, mean over the matrix (fraction); higher = more synergy
Reported Bliss excess is given for each of the following molecules.
endpoint-label: Bliss excess

- molecule: "COc1nnc2ccc(N3CCC(c4ccc(OCCN5CCN(C)C(=O)[C@H]5C)cc4)CC3)nn12 [AZD5153] + CC1(C)CCC(CN2CCN(c3ccc(C(=O)NS(=O)(=O)c4ccc(NCC5CCOCC5)c([N+](=O)[O-])c4)c(Oc4cnc5[nH]ccc5c4)c3)CC2)=C(c2ccc(Cl)cc2)C1 [Venetoclax] (first compound max 1 µM, 7x7, partner max 1 µM)"
  result: 0.0049
- molecule: "C[C@@H](Nc1cc(F)cc(F)c1)c1cc(C(=O)N(C)C)cc2c(=O)cc(N3CCOCC3)oc12 [AZD8186] + C1CN(CCC1(C(=O)N[C@@H](CCO)C2=CC=C(C=C2)Cl)N)C3=NC=NC4=C3C=CN4 [AZD5363] (first compound max 10 µM, 7x7, partner max 10 µM)"
  result: -0.0913
- molecule: "Cc1c2c(nn1C)CSCc1cc(n(C)n1)CSc1cc(c3ccccc3c1)OCCCc1c(C(=O)O)n(C)c3c-2c(Cl)ccc13 [AZD5991] + CN(C)CCCOc1ccc(-c2ccc3ncc4c(c3c2)n(C2CCOCC2)c(=O)n4C)cn1 [AZD0156] (first compound max 1 µM, 7x7, partner max 1 µM)"
  result: -0.0033

---

System: LK-2 (Squamous Cell Lung Carcinoma)
Test: combination Emax (second highest fraction inhibited in the dose matrix, 72 h); higher = more inhibition; extreme values may be limits of the assay
Respond with Met for combination Emax values of 0.8 and above, Not met for values below.

- compound: "NC1(C(=O)N[C@@H](CCO)c2ccc(Cl)cc2)CCN(c2ncnc3[nH]ccc23)CC1 [Capivasertib] + COc1nnc2ccc(N3CCC(c4ccc(OCCN5CCN(C)C(=O)[C@H]5C)cc4)CC3)nn12 [AZD5153] (first compound max 10 µM, 7x7, partner max 1 µM)"
  subject-of-test: "LK-2 (Squamous Cell Lung Carcinoma)"
  qualitative-label: "Not met"
- compound: "C[C@@H]1COCCN1c1cc(C2([S@](C)(=N)=O)CC2)nc(-c2ccnc3[nH]ccc23)n1 [AZD6738] + Nc1ccn([C@@H]2O[C@H](CO)[C@@H](O)C2(F)F)c(=O)n1 [Gemcitabine] (first compound max 10 µM, 7x7, partner max 0.3 µM)"
  subject-of-test: "LK-2 (Squamous Cell Lung Carcinoma)"
  qualitative-label: "Met"
- compound: "CN(CCO)CC[C@H](CSc1ccccc1)Nc1ccc(S(=O)(=O)NC(=O)c2ccc(N3CCC([C@@H](O)c4ccccc4-c4ccc(Cl)cc4)CC3)cc2)cc1S(=O)(=O)C(F)(F)F [AZD4320] + CCN(CCO)CCCOc1ccc2c(Nc3cc(CC(=O)Nc4cccc(F)c4)[nH]n3)ncnc2c1 [AZD2811] (first compound max 1 µM, 7x7, partner max 1 µM)"
  subject-of-test: "LK-2 (Squamous Cell Lung Carcinoma)"
  qualitative-label: "Met"
- compound: "CN(CCO)CC[C@H](CSc1ccccc1)Nc1ccc(S(=O)(=O)NC(=O)c2ccc(N3CCC([C@@H](O)c4ccccc4-c4ccc(Cl)cc4)CC3)cc2)cc1S(=O)(=O)C(F)(F)F [AZD4320] + C=CCn1c(=O)c2cnc(Nc3ccc(N4CCN(C)CC4)cc3)nc2n1-c1cccc(C(C)(C)O)n1 [AZD1775] (first compound max 1 µM, partner max 1 µM)"
  subject-of-test: "LK-2 (Squamous Cell Lung Carcinoma)"
  qualitative-label: "Met"
- compound: "CC(=O)c1c(C)c2cnc(Nc3ccc(N4CCNCC4)cn3)nc2n(C2CCCC2)c1=O [Palbociclib] + Cn1cnc2c(F)c(Nc3ccc(Br)cc3Cl)c(C(=O)NOCCO)cc21 [Selumetinib] (first compound max 10 µM, 7x7, partner max 10 µM)"
  subject-of-test: "LK-2 (Squamous Cell Lung Carcinoma)"
  qualitative-label: "Not met"
- compound: "N#Cc1cnc(Nc2cc(NC[C@H]3CNCCO3)c(C(F)(F)F)cn2)cn1 [SRA737] + Nc1ccn([C@@H]2O[C@H](CO)[C@@H](O)C2(F)F)c(=O)n1 [Gemcitabine] (first compound max 10 µM, 7x7, partner max 0.3 µM)"
  subject-of-test: "LK-2 (Squamous Cell Lung Carcinoma)"
  qualitative-label: "Met"

---

Consider the following compounds and their measured combination Emax readings.
Tested on: HCT-15 (Colorectal Carcinoma)
Assay: combination Emax (second highest fraction inhibited in the dose matrix, 72 h); higher = more inhibition; extreme values may be limits of the assay
endpoint-label: combination Emax

- compound: "NC1(C(=O)N[C@@H](CCO)c2ccc(Cl)cc2)CCN(c2ncnc3[nH]ccc23)CC1 [Capivasertib] + Cn1cnc2c(F)c(Nc3ccc(Br)cc3Cl)c(C(=O)NOCCO)cc21 [Selumetinib] (first compound max 10 µM, 7x7, partner max 10 µM)"
  endpoint-label: "combination Emax"
  result: 0.559
- compound: "C[C@@H](c1ccc2nccn2c1)n1nnc2ncc(-c3cnn(C)c3)nc21 [Savolitinib] + CN(CC[C@H](CSC1=CC=CC=C1)NC2=C(C=C(C=C2)S(=O)(=O)NC(=O)C3=CC=C(C=C3)N4CCC(CC4)[C@H](C5=CC=CC=C5C6=CC=C(C=C6)Cl)O)S(=O)(=O)C(F)(F)F)CCO [AZD4320] (first compound max 1 µM, 7x7, partner max 1 µM)"
  endpoint-label: "combination Emax"
  result: 0.132
- compound: "CC1(C)CCC(CN2CCN(c3ccc(C(=O)NS(=O)(=O)c4ccc(NCC5CCOCC5)c([N+](=O)[O-])c4)c(Oc4cnc5[nH]ccc5c4)c3)CC2)=C(c2ccc(Cl)cc2)C1 [Venetoclax] + C=CCn1c(=O)c2cnc(Nc3ccc(N4CCN(C)CC4)cc3)nc2n1-c1cccc(C(C)(C)O)n1 [AZD1775] (first compound max 1 µM, partner max 1 µM)"
  endpoint-label: "combination Emax"
  result: 0.47
- compound: "COc1nnc2ccc(N3CCC(c4ccc(OCCN5CCN(C)C(=O)[C@H]5C)cc4)CC3)nn12 [AZD5153] + CC1(C)CCC(CN2CCN(c3ccc(C(=O)NS(=O)(=O)c4ccc(NCC5CCOCC5)c([N+](=O)[O-])c4)c(Oc4cnc5[nH]ccc5c4)c3)CC2)=C(c2ccc(Cl)cc2)C1 [Venetoclax] (first compound max 1 µM, 7x7, partner max 1 µM)"
  endpoint-label: "combination Emax"
  result: 0.724
- compound: "CC1(C)CCC(CN2CCN(c3ccc(C(=O)NS(=O)(=O)c4ccc(NCC5CCOCC5)c([N+](=O)[O-])c4)c(Oc4cnc5[nH]ccc5c4)c3)CC2)=C(c2ccc(Cl)cc2)C1 [Venetoclax] + CCN(CCO)CCCOc1ccc2c(Nc3cc(CC(=O)Nc4cccc(F)c4)[nH]n3)ncnc2c1 [AZD2811] (first compound max 1 µM, 7x7, partner max 1 µM)"
  endpoint-label: "combination Emax"
  result: 0.178
- compound: "CN(CCO)CC[C@H](CSc1ccccc1)Nc1ccc(S(=O)(=O)NC(=O)c2ccc(N3CCC([C@@H](O)c4ccccc4-c4ccc(Cl)cc4)CC3)cc2)cc1S(=O)(=O)C(F)(F)F [AZD4320] + Cc1cc2ncnn2cc1Nc1ncc2c(n1)n(C1CCOCC1)c(=O)n2C [AZD7648] (first compound max 1 µM, 7x7, partner max 10 µM)"
  endpoint-label: "combination Emax"
  result: 0.135
- compound: "C=CCn1c(=O)c2cnc(Nc3ccc(N4CCN(C)CC4)cc3)nc2n1-c1cccc(C(C)(C)O)n1 [AZD1775] + C1CN(CCC1(C(=O)N[C@@H](CCO)C2=CC=C(C=C2)Cl)N)C3=NC=NC4=C3C=CN4 [Capivasertib] (first compound max 3 µM, partner max 3 µM)"
  endpoint-label: "combination Emax"
  result: 0.896
- compound: "NC1(C(=O)N[C@@H](CCO)c2ccc(Cl)cc2)CCN(c2ncnc3[nH]ccc23)CC1 [Capivasertib] + COc1nnc2ccc(N3CCC(c4ccc(OCCN5CCN(C)C(=O)[C@H]5C)cc4)CC3)nn12 [AZD5153] (first compound max 10 µM, 7x7, partner max 1 µM)"
  endpoint-label: "combination Emax"
  result: 0.717
- compound: "NC1(C(=O)N[C@@H](CCO)c2ccc(Cl)cc2)CCN(c2ncnc3[nH]ccc23)CC1 [Capivasertib] + CC(C)n1c(=O)n(C)c2cnc3cc(F)c(-c4ccc(OCCCN5CCCCC5)nc4)cc3c21 [AZD1390] (first compound max 10 µM, 7x7, partner max 0.3 µM)"
  endpoint-label: "combination Emax"
  result: 0.312
- compound: "CN(CCO)CC[C@H](CSc1ccccc1)Nc1ccc(S(=O)(=O)NC(=O)c2ccc(N3CCC([C@@H](O)c4ccccc4-c4ccc(Cl)cc4)CC3)cc2)cc1S(=O)(=O)C(F)(F)F [AZD4320] + C1CN(CCC1(C(=O)N[C@@H](CCO)C2=CC=C(C=C2)Cl)N)C3=NC=NC4=C3C=CN4 [Capivasertib] (first compound max 1 µM, 7x7, partner max 3 µM)"
  endpoint-label: "combination Emax"
  result: 0.174
- compound: "CC1(C)CCC(CN2CCN(c3ccc(C(=O)NS(=O)(=O)c4ccc(NCC5CCOCC5)c([N+](=O)[O-])c4)c(Oc4cnc5[nH]ccc5c4)c3)CC2)=C(c2ccc(Cl)cc2)C1 [Venetoclax] + Cc1cc2ncnn2cc1Nc1ncc2c(n1)n(C1CCOCC1)c(=O)n2C [AZD7648] (first compound max 1 µM, 7x7, partner max 10 µM)"
  endpoint-label: "combination Emax"
  result: 0.229
- compound: "Cc1cc2ncnn2cc1Nc1ncc2c(n1)n(C1CCOCC1)c(=O)n2C [AZD7648] + CN(C)CCCOc1ccc(-c2ccc3ncc4c(c3c2)n(C2CCOCC2)c(=O)n4C)cn1 [AZD0156] (first compound max 10 µM, 7x7, partner max 1 µM)"
  endpoint-label: "combination Emax"
  result: 0.267
